// data source = paper PMC7852560

# protocol_details: in vitro
# Format: in vitro ADME, human
# condition_set: microsomes, pH 7.4; human liver microsomal preparations
quantity_kind: half-life at 3 µM (h)
Give just the numeric value; h need not be written.

Identify measured half-life at 3 µM corresponding to CCc1c(-c2nnc(Nc3ccccc3)o2)[nH]c2ccc(Cl)cc12 1.82

----------
# protocol_details: in vitro
# Type: in vitro ADME, human
# condition_set: pH 7.4; human liver microsomes
quantity_kind: microsomal CLint at 3 µM (µL/min/mg)
Report the value in µL/min/mg with no unit label.

Output measured microsomal CLint at 3 µM for this item: CCc1c(-c2nnc(Nc3ccccc3)o2)[nH]c2ccc(Cl)cc12 12.7
